TEST METHOD NOTES: Human HepG2 cell viability assay in 384 well format
Type: toxicity, cell-based
Design: dose 125 nL, time 70.5 hour; concentration not given beside the values
APPLIED CONDITIONS: HepG2 cells, read-out: Inhibition
REPORTED ENDPOINT: cytotoxicity at 70.5 h (%)
Answers are plain numbers, in %.

Example cases with answers are listed next.
Tell me the measured cytotoxicity at 70.5 h of CC(=O)NCc1ccc(C(=O)N2CCCc3c(F)ccc(C)c32)cc1 , please.
-8.8

Now consider C[C@H](NS(C)(=O)=O)C(=O)NCc1cc(-c2ccco2)n[nH]1 and answer again.
-12.9

Now consider CS(=O)(=O)Cc1cccc(C(=O)NCC2Cc3ccccc3O2)c1 (stereo unspecified) and answer again.
-3.94

Each of the following entries comes with a recorded value; kindly state cytotoxicity at 70.5 h for each.
1. CN(Cc1nnc2n1CCC2)S(=O)(=O)c1ccc(Br)cc1Cl
2. O=C(Nc1ccc(F)cc1)C1CCc2ccccc2N1 (stereo unspecified)
3. CN1CC2(CCCN(C(=O)c3cnc4ccc(F)cc4c3O)C2)OC1=O (stereo unspecified)
4. CCN1C[C@H]2N(c3ncccn3)CCC[C@@]2(C(=O)NCC2CC2)C1
5. CC1CCC(NC(=O)CNC2(c3cccc(Br)c3)CCOCC2)CC1 (stereo unspecified)
6. CNc1cc(C)nc(C2COCCN2CCc2ccccc2)n1 (stereo unspecified)

1. -4.12
2. -1.61
3. -6.43
4. 0.391
5. 9.26
6. -1.48

Each of the following entries comes with a recorded value; kindly state cytotoxicity at 70.5 h for each.
1. CCCc1nc(CN2CCCC2c2cnn(C)c2)cs1 (stereo unspecified)
2. CCN(Cc1noc(CC(C)C)n1)Cc1ncccc1C(=O)O

1: 13; 2: -3.41

* * *

TEST METHOD NOTES: Human HepG2 cell viability assay in 384 well format
Assay type: toxicity, cell-based
Design: dose 125 nL, time 70.5 hour; concentration not given beside the values
APPLIED CONDITIONS: HepG2 cells, read-out: Inhibition
What cytotoxicity at 70.5 h was measured for each of the following?
One number for each entry, in %.

Tell me the measured cytotoxicity at 70.5 h of NC(=O)C1CCCN(S(=O)(=O)c2cnn(-c3ccccc3)c2)C1 (stereo unspecified) , please.
-1.76

Now consider CC(=O)N1CCC(c2ccnc(Nc3cc(C(F)(F)F)ccn3)n2)C1 (stereo unspecified) and answer again.
19.8

Now consider Cc1ccc(CNc2n[nH]c(C)n2)cc1 and answer again.
-10.9

Now consider Cn1nc(C2CCCN(Cc3ccsc3)C2)c2nccnc21 (stereo unspecified) and answer again.
-0.972

Now consider CCC(C)NC(=O)Nc1cccc(OCCCC#N)c1 (stereo unspecified) and answer again.
-8.47

# next compound below
Tell me the measured cytotoxicity at 70.5 h of COC(C)c1noc(CN(C)c2nccnc2C#N)n1 (stereo unspecified) , please.
1.72

* * *

TEST METHOD NOTES: Human HepG2 cell viability assay in 384 well format
Format: toxicity, cell-based
Design: dose 125 nL, time 70.5 hour; concentration not given beside the values
APPLIED CONDITIONS: HepG2 cells, read-out: Inhibition
REPORTED ENDPOINT: cytotoxicity at 70.5 h (%)
Numbers only, in %.

Tell me the measured cytotoxicity at 70.5 h of Cc1noc(C2CCCCN2C(=O)NCc2ccco2)n1 (centres undefined) , please.
-19.9

Each of the following entries comes with a recorded value; kindly state cytotoxicity at 70.5 h for each.
1. Cc1nccn1C1CCCN(C(=O)c2cnn(C)c2C2CC2)C1 (centres undefined)
2. Cc1nc(CNC(=O)c2oc3ccccc3c2CN(C)C)oc1C
3. CN(C)c1ncccc1CNS(=O)(=O)c1ccc(C(N)=O)cc1
4. CC(C)NC(=O)N1CCC2(CC(C(=O)NCc3cccnc3)=NO2)C1 (centres undefined)
5. O=C(c1ccncc1)N1CCC(Oc2cccc(C(F)(F)F)c2)CC1

1: -0.648; 2: -8.24; 3: -7.08; 4: -11.9; 5: -5.79

Cited source for all entries: ChEMBL document CHEMBL3507680
